// provenance: ChEMBL document CHEMBL4837263

test: Drug concentration in C57BL/6J mouse brain at 30 mg/kg, po measured after 2 hrs by LC-MS/MS analysis; type: ADME, organism-based; details: read-out: Ct
Readout Label: concentration at 2 h (µM)

> print(dat)
                      smiles.representation         readout.label  unit.tag  result.value
1  Cc1nc2c(cnn2-c2csc(C(=O)NC3COC3)c2)cc1Nc1c(F)cccc1Cl  concentration at 2 h        µM           3.3

* * *

The reader will find reported IC50 values listed item by item below.
molecular target: Cytochrome P450 2C9 (Homo sapiens); test: Inhibition of CYP2C9 (unknown origin) by titration method
Sequence (P11712 whole entry): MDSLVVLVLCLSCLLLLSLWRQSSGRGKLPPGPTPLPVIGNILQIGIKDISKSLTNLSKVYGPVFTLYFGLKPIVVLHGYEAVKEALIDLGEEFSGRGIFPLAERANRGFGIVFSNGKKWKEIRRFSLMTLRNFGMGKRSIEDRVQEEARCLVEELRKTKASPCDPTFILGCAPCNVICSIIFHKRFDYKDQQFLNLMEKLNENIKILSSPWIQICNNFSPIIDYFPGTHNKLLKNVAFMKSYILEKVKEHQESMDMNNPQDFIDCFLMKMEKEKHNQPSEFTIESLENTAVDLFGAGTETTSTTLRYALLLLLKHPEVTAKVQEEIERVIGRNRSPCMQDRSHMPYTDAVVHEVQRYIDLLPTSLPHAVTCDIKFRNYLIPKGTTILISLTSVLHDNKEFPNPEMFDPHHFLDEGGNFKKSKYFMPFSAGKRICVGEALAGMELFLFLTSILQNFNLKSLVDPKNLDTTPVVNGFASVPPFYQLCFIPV
Readout Label: IC50 (µM)

> print(dat)
                      smiles.representation                        assay.system  readout.label  result.value
1  CNC(=O)c1cc(-n2ncc3cc(Nc4ccccc4Cl)cnc32)cs1  Cytochrome P450 2C9 (Homo sapiens)           IC50             4
2  O=C(NC1COC1)c1cc(-n2ncc3cc(Nc4ccccc4Cl)cnc32)cs1  Cytochrome P450 2C9 (Homo sapiens)           IC50             4

* * *

Form field: pIC50 (one value per entry).
molecular target: Mitogen-activated protein kinase 8 (Homo sapiens, UniProt P45983); assay: Inhibition of JNK1 (unknown origin) using biotinylated FL-ATF-2 as substrate measured after 22 mins by homogeneous time-resolved fluorescence analysis
Sequence (P45983 whole entry): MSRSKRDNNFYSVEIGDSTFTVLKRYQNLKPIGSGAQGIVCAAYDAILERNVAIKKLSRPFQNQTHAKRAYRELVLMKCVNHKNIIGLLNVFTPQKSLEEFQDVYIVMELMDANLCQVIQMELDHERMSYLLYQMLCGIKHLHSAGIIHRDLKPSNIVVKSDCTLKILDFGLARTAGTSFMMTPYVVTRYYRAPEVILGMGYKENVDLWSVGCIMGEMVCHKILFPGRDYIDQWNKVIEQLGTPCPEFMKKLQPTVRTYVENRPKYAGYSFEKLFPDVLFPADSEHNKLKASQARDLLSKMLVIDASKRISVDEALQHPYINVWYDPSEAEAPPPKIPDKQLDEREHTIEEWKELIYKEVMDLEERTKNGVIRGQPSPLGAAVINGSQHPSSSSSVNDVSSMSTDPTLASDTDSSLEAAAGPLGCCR
pIC50: −log10 of the molar value.
Readout Label: pIC50

> print(dat)
                      smiles.representation  cmp  result.value
1  O=C(NC1COC1)c1cc(-n2ncc3cc(Nc4ccccc4Cl)cnc32)cs1    =          6.03
2  CNC(=O)c1cc(-n2ncc3cc(Nc4cccc(OC)c4Cl)c(C)nc32)cs1    <          5.00
3  CNC(=O)c1cc(-n2ncc3cc(Nc4c(F)cccc4OC)c(F)cc32)cs1    =          5.91
4  O=C(NCC(F)F)c1cc(-n2ncc3cc(Nc4ccccc4Cl)c(F)cc32)cs1    =          6.48
5  [2H]C([2H])([2H])N1CC[C@H](NC(=O)c2cc(-n3ncc4cc(Nc5ccccc5Cl)ccc43)cs2)C1    =          6.58
6  CNC(=O)c1cc(-n2ncc3cc(Nc4c(F)cccc4Cl)ncc32)cs1    =          6.59

* * *

# pIC50 values compiled below
target: Voltage-gated inwardly rectifying potassium channel KCNH2 (Homo sapiens, UniProt Q12809); assay: Inhibition of human ERG expressed in CHO cells at -80 mV holding potential by automated Qpatch electrophysiological method
Sequence (Q12809 whole entry): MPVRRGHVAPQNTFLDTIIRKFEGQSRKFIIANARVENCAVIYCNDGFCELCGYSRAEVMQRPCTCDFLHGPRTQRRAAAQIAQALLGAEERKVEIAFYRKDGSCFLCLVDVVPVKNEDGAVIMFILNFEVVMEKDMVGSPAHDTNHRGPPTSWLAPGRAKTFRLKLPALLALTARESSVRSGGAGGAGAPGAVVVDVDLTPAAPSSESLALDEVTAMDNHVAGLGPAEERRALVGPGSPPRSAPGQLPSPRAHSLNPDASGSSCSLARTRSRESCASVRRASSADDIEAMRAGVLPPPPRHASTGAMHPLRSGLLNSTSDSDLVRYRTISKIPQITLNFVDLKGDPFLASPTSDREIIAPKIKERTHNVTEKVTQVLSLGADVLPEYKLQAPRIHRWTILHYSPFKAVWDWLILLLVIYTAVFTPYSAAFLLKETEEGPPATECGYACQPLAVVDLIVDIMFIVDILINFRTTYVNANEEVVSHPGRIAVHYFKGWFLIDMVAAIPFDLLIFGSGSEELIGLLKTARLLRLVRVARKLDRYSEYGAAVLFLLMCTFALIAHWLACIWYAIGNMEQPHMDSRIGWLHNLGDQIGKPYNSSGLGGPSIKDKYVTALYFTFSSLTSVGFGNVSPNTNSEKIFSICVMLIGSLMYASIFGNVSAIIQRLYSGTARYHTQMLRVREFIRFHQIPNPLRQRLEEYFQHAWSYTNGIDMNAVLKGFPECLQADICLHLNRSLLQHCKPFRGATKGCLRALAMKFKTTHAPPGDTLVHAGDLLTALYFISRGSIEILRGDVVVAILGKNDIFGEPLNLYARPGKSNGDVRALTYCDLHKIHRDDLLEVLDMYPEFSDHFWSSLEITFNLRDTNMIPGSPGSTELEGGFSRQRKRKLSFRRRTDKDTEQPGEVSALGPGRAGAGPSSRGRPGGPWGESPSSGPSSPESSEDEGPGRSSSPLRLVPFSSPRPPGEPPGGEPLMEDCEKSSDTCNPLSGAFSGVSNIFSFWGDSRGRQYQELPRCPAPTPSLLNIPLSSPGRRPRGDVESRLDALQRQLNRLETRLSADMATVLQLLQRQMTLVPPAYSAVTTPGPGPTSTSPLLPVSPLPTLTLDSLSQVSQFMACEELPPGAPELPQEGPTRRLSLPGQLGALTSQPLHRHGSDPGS
pIC50: −log10 of the molar value.
Readout Label: pIC50

> print(dat)
                      smiles.representation  readout.label  result.value
1  CNC(=O)c1cc(-n2ncc3cc(Nc4ccccc4Cl)cnc32)cs1          pIC50        < 4.00
2  CNC(=O)c1cc(-n2ncc3cc(Nc4c(F)cccc4Cl)c(C)nc32)cs1          pIC50        < 4.52
3  CNC(=O)c1cc(-n2ncc3cc(Nc4ccccc4Cl)c(F)cc32)cs1          pIC50        < 4.52
4  O=C(Nc1cnn(-c2csc(C(=O)NC3COC3)c2)c1)Nc1ccccc1Cl          pIC50        < 4.52
5  [2H]C([2H])([2H])N1CC[C@H](NC(=O)c2cc(-n3ncc4cc(Nc5ccccc5Cl)c(F)cc43)cs2)C1          pIC50        > 6.00
6  [2H]C([2H])([2H])N1CC[C@H](NC(=O)c2cc(-n3ncc4cc(Nc5ccccc5Cl)ccc43)cs2)C1          pIC50        > 6.00
